# Tested on: PIM3
# assay_conditions: concentration: 1 μM,replicates: in singlicate; n = 1;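 further: KINOMEscan kinase panel screen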
property_label: %Inh (%)

compound=Cn1ccc2ncnc(Oc3ccc(NC(=O)Nc4cccc(C(F)(F)F)c4)c(Cl)c3)c21 measurement_unit=% measurement=15
compound="COc1cc2ncn(-c3cc(OCC4CCCCC4)c(C(N)=O)s3)c2cc1OC [GSK204559]" measurement_unit=% measurement=11
compound="CSc1nccc(-c2c(-c3ccc(F)cc3)ncn2CCCN2CCOCC2)n1.Cl [SB-217146]" measurement_unit=% measurement=9
compound=CN(c1ccccc1CNc1nc(Nc2ccc3c(c2)CC(=O)N3)ncc1C(F)(F)F)S(C)(=O)=O measurement_unit=% measurement=0
compound="O=c1[nH]cc(-c2ccc(O)cc2)c2sc(-c3ccncc3)cc12 [GSK1033723]" measurement_unit=% measurement=0
compound="CC(C(=O)NC1CCN(c2ccnc(Nc3ccc(F)cc3)n2)C1)c1ccc(Cl)cc1 (centres unmarked) [GSK1379713]" measurement_unit=% measurement=0
compound=CN(c1cccc(CNc2nc(Nc3ccc4c(c3)CC(=O)N4)ncc2C(F)(F)F)c1)S(C)(=O)=O measurement_unit=% measurement=3
compound="COC(=O)c1cccc(NC(=O)NC2CCN(c3ccnc(NCc4ccc(F)cc4)n3)CC2)c1 [GSK1379860]" measurement_unit=% measurement=0

---

# System: FGFR2
# assay_conditions: concentration: 1 μM,replicates: in singlicate; n = 1
Each entry below lists one item and its recorded %Inh value.
property_label: %Inh (%)

molecule=Cn1cc(-c2cccc3c(N)c(C(N)=O)nnc23)cn1 measurement_target=FGFR2 property_label=%Inh measurement=2
molecule="c1ccc(Oc2ccc(Nc3ccnc4ccc(-c5ccccn5)cc34)cc2)cc1 [GW407034]" measurement_target=FGFR2 property_label=%Inh measurement=34
molecule="O=C(NCC1CC1)c1ccc(-c2cc(C(=O)NC3CC3)ccc2F)cc1 [GW810445]" measurement_target=FGFR2 property_label=%Inh measurement=0
molecule="COc1cc(Nc2nccc(N3CCC(NC(=O)c4cccc(C#N)c4)C3)n2)cc(OC)c1OC (stereo not shown) [GSK1379751]" measurement_target=FGFR2 property_label=%Inh measurement=0
molecule="CCNCC(Cc1ccccc1)NC(=O)c1cc(Br)c(-c2ccnc3[nH]ccc23)s1.Cl.Cl (stereo not shown) [GSK1383280]" measurement_target=FGFR2 property_label=%Inh measurement=81
molecule=Cn1ccc2ncnc(Oc3ccc(NC(=O)Nc4ccnc(C(F)(F)F)c4)c(Cl)c3)c21 measurement_target=FGFR2 property_label=%Inh measurement=5
molecule="Cc1n[nH]c2cc(Nc3ccnc(Nc4cccc(CN5CCOCC5)c4)n3)ccc12 [GW682569]" measurement_target=FGFR2 property_label=%Inh measurement=0

---

Below: a set of entries, each annotated with reported %Inh.
# Test system: TAOK3
# assay_conditions: concentration: 1 μM,replicates: in singlicate; n = 1
property_label: %Inh (%)

compound=Cn1ccc2ncnc(Oc3ccc(NC(=O)Nc4cc(C(C)(C)C)on4)c(Cl)c3)c21 measurement=0
compound=Cc1ccc(CC(=O)N2CCc3cc(-c4cn(C)c5ncnc(N)c45)ccc32)cc1 measurement=0
compound=NC(=O)Nc1sc(-c2ccc(F)cc2)cc1C(N)=O measurement=3
compound="CCNCC(Cc1ccccc1)NC(=O)c1cc(Br)c(-c2ccnc3[nH]ccc23)s1.Cl.Cl (stereo not drawn)" measurement=15
compound=C[C@@H](Oc1cc(-n2cnc3cc(-c4ccncc4)ccc32)sc1C(N)=O)c1ccccc1Cl measurement=0
compound=CS(=O)(=O)Nc1ccc(-c2ccnc3[nH]ccc23)cc1 measurement=0
compound=C[C@@H](Oc1cc(-n2cnc3ccc(-c4ccncc4)cc32)sc1C(N)=O)c1ccccc1Cl measurement=0
compound=OCCn1cc(-c2cnc3nnn(Cc4ccc5ncccc5c4)c3n2)cn1 measurement=0
compound=C[C@@H]1CCN(C(=O)N2CCCC2)C[C@@H]1N(C)c1ncnc2[nH]ccc12 measurement=0
compound=O=C(Nc1n[nH]c2cc(-c3ccco3)ccc12)C1CC1 measurement=12
compound=COc1cc2c(Nc3ccc(NC(=O)c4ccccc4)cc3)ncnc2cc1OCCCN1CCOCC1 measurement=0
compound=CN1CCN(CCCNc2nccc(-c3c(-c4ccc(F)cc4)nn4cc(C(N)=O)ccc34)n2)CC1 measurement=10
compound=CCn1c(-c2nonc2N)nc2cncc(CNC3CCNCC3)c21.Cl measurement=0
compound="COC(=O)c1cccc(NC(=O)NC2CCN(c3ccnc(Nc4cc(OC)c(OC)c(OC)c4)n3)C2)c1 (stereo not drawn)" measurement=0
compound=C[C@@H](Oc1cc(-n2cnc3cc(-c4cnn(C)c4)ccc32)sc1C(N)=O)c1ccccc1Cl measurement=0
compound=CC(C)c1nc(-c2cccc(NS(=O)(=O)c3ccccc3)c2)c(-c2ccnc(Nc3ccc4c(c3)CN(C)CC4)n2)s1 measurement=97.8
compound=c1ccc(Oc2ccc(Nc3ccnc4ccc(-c5ccccn5)cc34)cc2)cc1 measurement=0
compound=Cc1ccc2c(-c3ccnc(Nc4ccc(C(F)(F)F)cc4)n3)cnn2n1 measurement=0

Values compiled from paper PMC5540273.
